B1: scFv; the commonest letter at each place (parent)
chain 1: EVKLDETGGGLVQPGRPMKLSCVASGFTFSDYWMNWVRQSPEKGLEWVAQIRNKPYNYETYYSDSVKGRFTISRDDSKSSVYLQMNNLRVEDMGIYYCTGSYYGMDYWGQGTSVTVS
chain 2: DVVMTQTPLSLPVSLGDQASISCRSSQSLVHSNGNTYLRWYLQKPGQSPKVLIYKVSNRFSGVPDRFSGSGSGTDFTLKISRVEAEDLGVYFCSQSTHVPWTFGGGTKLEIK

# Variants of: B1
# test method notes: yeast surface expression (ratio to wild type); higher = more expressed
# experimental setup: format: scFv 4-4-20, heavy + light
parameter measured: yeast surface expression
Numbers only.

Here's what some known entries look like.
chain 1 W33F W36L | 0.594
chain 1 W108A | 0.588

Query :: // lookup yeast surface expression for chain 1 D31C
Result :: 0.608

Cited source: the FLAb antibody collection (doi:10.7554/elife.23156)
